Tested on: Fibroblast
Assay: Multiplex assay against human fibroblast
Assay type: toxicity, cell-based
Details: 48 h, 1 µM, compound concentration 1 uM, replicate 1
Population Membrane Permeable-Phenotype (%) strictly less than 20% = true. Otherwise false.

For orientation, consider the following solved cases.
# compound, discrete-label
measured = [
    ("CCCn1c(=O)c2[nH]c(C34CC5CC(CC3C5)C4)nc2n(CCC)c1=O [ROLOFYLLINE]", "false"),
    ("CCn1c(-c2nonc2N)nc2cnc(Oc3cccc(NC(=O)c4ccc(OCCN5CCOCC5)cc4)c3)cc21 [GSK-269962A]", "true"),
    ("COc1ccc(NS(=O)(=O)c2sc3ccc(Cl)cc3c2C)cc1N1CCNCC1.Cl", "true"),
]

Turning now to a further record.
Incoming: # TODO verify Population Membrane Permeable-Phenotype (%) < 20% strictly for this compound: CCC(=O)O[C@]1(C(=O)SCF)[C@H](C)C[C@H]2[C@@H]3C[C@H](F)C4=CC(=O)C=C[C@]4(C)[C@@]3(F)[C@@H](O)C[C@@]21C [FLUTICASONE PROPIONATE]
Outgoing: false

----------
Tested on: HEK-293T
Experiment: Multiplex assay against HEK293T
Assay type: toxicity, cell-based
Conditions: human, 12 h, 1 µM, compound concentration 1 uM, replicate 2
quantity-measured: Total Cell Count
// return a plain number; no unit text

Use the examples below as a reference point.
# compound, Total Cell Count
data = [
    ("CCOc1cc2ncc(C#N)c(Nc3ccc(OCc4cccc(F)c4)c(Cl)c3)c2cc1NC(=O)/C=C/CN(C)C", 1619),
    ("CC(=O)c1cc(-c2cc(C(=O)NC3CC3)ccc2C)c2ncccn12", 271),
    ("COc1cc2c(Nc3ccc(NC(=O)c4ccccc4)cc3)ncnc2cc1OCCCN1CCOCC1", 927),
    ("CNC(=O)c1nn(C)c2c1C(C)(C)Cc1cnc(Nc3ccc(N4CCN(C)CC4)cc3)nc1-2", 860),
    ("CCC(=O)O[C@]1(C(=O)SCF)[C@H](C)C[C@H]2[C@@H]3C[C@H](F)C4=CC(=O)C=C[C@]4(C)[C@@]3(F)[C@@H](O)C[C@@]21C [FLUTICASONE PROPIONATE]", 273),
]

Incoming: Request the reported Total Cell Count associated with `COc1cc2c(NC3CCN(C(C)C)CC3)nc(N3CCC(F)(F)CC3)nc2cc1OCCCN1CCCC1`
Outgoing: 235

Incoming: Please look up its Total Cell Count: `O=C(O)c1ccc2cc(-c3ccc(O)c(C45CC6CC(CC(C6)C4)C5)c3)ccc2c1`
Outgoing: 214

Incoming: // query Total Cell Count value for entry `CCc1cc2c(cc1CC)CC(NC[C@H](O)c1ccc(O)c3[nH]c(=O)ccc13)C2`
Outgoing: 228

Incoming: Which Total Cell Count reading was recorded for the compound Cc1nc(Cc2cccc(C(F)(F)F)c2)sc1-c1ccc(C(N)=O)nc1 [TP-024n] ?
Outgoing: 212

Incoming: Any idea what its Total Cell Count is? The compound is CN(C)C/C=C/C(=O)Nc1cc2c(Nc3ccc(F)c(Cl)c3)ncnc2cc1O[C@H]1CCOC1.O=C(O)/C=C\C(=O)O.O=C(O)/C=C\C(=O)O [AFATINIB DIMALEATE]
Outgoing: 1304

Incoming: Suppose we examine the compound `Nc1nc2c(c(N3CCNCC3)n1)CCC1=C2[C@@H]2CCCC[C@@H]2O1` ; what Total Cell Count value has been reported?
Outgoing: 217

----------
Tested on: Fibroblast
Experiment: Multiplex assay against human fibroblast
Format: toxicity, cell-based
Settings: 24 h, 10 µM, compound concentration 10 uM, replicate 1
Items are presented alongside their recorded Population Healthy Nuclei (%).

Incoming: Entry `CN(C)CCOc1ccc(-c2nc(-c3ccncc3)c(-c3ccc4c(c3)CC/C4=N\O)[nH]2)cc1` , system Fibroblast: what Population Healthy Nuclei (%) was measured?
Outgoing: 51%

Incoming: Kindly state the measured Population Healthy Nuclei (%) obtained for `COc1cc2c(Nc3ccc(NC(=O)c4ccccc4)cc3)ncnc2cc1OCCCN1CCOCC1` with Fibroblast.
Outgoing: 55%

Incoming: Form field: Population Healthy Nuclei (%) recorded for `Cc1cc2c(cc1N1C(=O)c3cccc4c(CCCO)ccc(c34)C1=O)n(C)c(=O)n2C` with Fibroblast (enter value)
Outgoing: 47%

Incoming: Population Healthy Nuclei (%) of `Cl.Cl.NC1(c2ccc(-c3nc4ccn5c(=O)[nH]nc5c4cc3-c3ccccc3)cc2)CCC1` on Fibroblast?
Outgoing: 38%

Incoming: Can you look up Population Healthy Nuclei (%) on Fibroblast for CCC(=O)O[C@]1(C(=O)SCF)[C@H](C)C[C@H]2[C@@H]3C[C@H](F)C4=CC(=O)C=C[C@]4(C)[C@@]3(F)[C@@H](O)C[C@@]21C [FLUTICASONE PROPIONATE] ?
Outgoing: 50%

Incoming: Query for Fibroblast: what Population Healthy Nuclei (%) does the record show for `CNc1oc(-c2cccc3ccccc23)nc1C#N` ?
Outgoing: 24%

Incoming: # returns recorded Population Healthy Nuclei (%) (system: Fibroblast) for `CCCn1c(=O)c2[nH]c(C34CC5CC(CC3C5)C4)nc2n(CCC)c1=O`
Outgoing: 43%

Incoming: Give Population Healthy Nuclei (%) (Fibroblast) of the following compound: `COc1ccc(NS(=O)(=O)c2sc3ccc(Cl)cc3c2C)cc1N1CCNCC1.Cl`
Outgoing: 51%

Incoming: Entry `CC(C)N1CCC(C)(C)c2cc(C#Cc3ccc(C(=O)O)cc3)ccc21` , system Fibroblast: what Population Healthy Nuclei (%) was measured?
Outgoing: 7%

Incoming: What is its Population Healthy Nuclei (%) for Fibroblast? Entry: `COc1cc2c(NC3CCN(C(C)C)CC3)nc(N3CCC(F)(F)CC3)nc2cc1OCCCN1CCCC1`
Outgoing: 42%

Incoming: Identify the measured Population Healthy Nuclei (%) of `Nc1ccc(C(=O)Nc2cccc(-c3nc(N4CCOCC4)c4oc5ncccc5c4n3)c2)cn1` for Fibroblast.
Outgoing: 32%

Incoming: Item: Cc1nc(Cc2cccc(C(F)(F)F)c2)sc1-c1ccc(C(N)=O)nc1 [TP-024n] Test system: Fibroblast Read-out: Population Healthy Nuclei (%) Value: ?
Outgoing: 57%

Incoming: Hi! What's the reported Population Healthy Nuclei (%) for `Cc1cn(-c2cc(NC(=O)c3ccc4c(c3)CN(c3cncnc3)C[C@@H]4C)cc(C(F)(F)F)c2)cn1` on Fibroblast?
Outgoing: 48%

Incoming: # returns recorded Population Healthy Nuclei (%) (system: Fibroblast) for `CNC(=O)c1cc(Oc2ccc(NC(=O)Nc3cc(C(C)(C)C)nn3-c3ccc4ncccc4c3)c(F)c2)ccn1`
Outgoing: 57%

Incoming: # get_value(readout= Population Healthy Nuclei (%), system= Fibroblast) for `Cl.Cl.Nc1ncnc2c1c(-c1cccc(OCc3ccccc3)c1)cn2[C@H]1C[C@@H](CN2CCC2)C1`
Outgoing: 40%

Incoming: Lookup: Population Healthy Nuclei (%) / Fibroblast / `CC(=O)c1cc(-c2cc(C(=O)NC3CC3)ccc2C)c2ncccn12`
Outgoing: 47%

----------
System: Fibroblast
Experiment: Multiplex assay against human fibroblast
Type: toxicity, cell-based
Settings: 12 h, 10 µM, compound concentration 10 uM, replicate 2
Please note: yes (1) applies when Population Fragmented Nuclei (%) is 20% or greater, and no (0) applies otherwise.

# compound, discrete-label
measured = [
    ("CCC(=O)O[C@]1(C(=O)SCF)[C@H](C)C[C@H]2[C@@H]3C[C@H](F)C4=CC(=O)C=C[C@]4(C)[C@@]3(F)[C@@H](O)C[C@@]21C [FLUTICASONE PROPIONATE]", "no (0)"),
]

Now let's try a different one.
Incoming: Evaluate N#Cc1cnc(Nc2cc(NC[C@H]3CNCCO3)c(C(F)(F)F)cn2)cn1 [SRA-737] : Population Fragmented Nuclei (%) at minimum 20%?
Outgoing: yes (1)

----------
Reported Population Pyknosed Nuclei (%) by item:
System: U2OS
Test: Multiplex assay against U2OS
Type: toxicity, cell-based
Conditions: human, 24 h, 1 µM, compound concentration 1 uM, replicate 2
Hi! Could you send only the number? It should be in %, unit omitted.

Some compounds with recorded Population Pyknosed Nuclei (%):
# compound, unit-symbol, data-value
measured = [
    ("CN(C)C/C=C/C(=O)Nc1cc2c(Nc3ccc(F)c(Cl)c3)ncnc2cc1O[C@H]1CCOC1.O=C(O)/C=C\\C(=O)O.O=C(O)/C=C\\C(=O)O [AFATINIB DIMALEATE]", "%", 5),
    ("CCc1cc2c(cc1CC)CC(NC[C@H](O)c1ccc(O)c3[nH]c(=O)ccc13)C2", "%", 9),
    ("N#Cc1cnc(Nc2cc(NC[C@H]3CNCCO3)c(C(F)(F)F)cn2)cn1", "%", 4),
    ("CCOc1cc2ncc(C#N)c(Nc3ccc(OCc4cccc(F)c4)c(Cl)c3)c2cc1NC(=O)/C=C/CN(C)C", "%", 8),
]

Incoming: // returns reported Population Pyknosed Nuclei (%) for input `COc1cc2c(Nc3ccc(NC(=O)c4ccccc4)cc3)ncnc2cc1OCCCN1CCOCC1`
Outgoing: 14

Incoming: What value of Population Pyknosed Nuclei (%) has been reported for the following compound? CCn1c(-c2nonc2N)nc2cnc(Oc3cccc(NC(=O)c4ccc(OCCN5CCOCC5)cc4)c3)cc21 [GSK-269962A]
Outgoing: 11

Incoming: Item Cc1nc(Cc2cccc(C(F)(F)F)c2)sc1-c1ccc(C(N)=O)nc1 [TP-024n] has what recorded Population Pyknosed Nuclei (%)?
Outgoing: 3

Incoming: Requested read-out: Population Pyknosed Nuclei (%). Entry: `CC(=O)c1cc(-c2cc(C(=O)NC3CC3)ccc2C)c2ncccn12`
Outgoing: 5

Incoming: Entry `CCOc1cc(N2CCC(O)CC2)ccc1Nc1ncc2c(n1)N(C1CCCC1)CCC(=O)N2C` has what Population Pyknosed Nuclei (%)?
Outgoing: 4
